system: SK-MEL-2 melanoma; experiment: NCI tumour cell line growth inhibition, 48 h; in the data active = GI50 below about 0.43 µM; inactive = the rest
Possible outcomes: YES (active), NO (inactive)

In [3]: df
Out[3]:
                                   molecule  answer_label
0  CCCCCCCCCCCCOC1C(C(COC2OC(C(O)CO)C3OC(C)(C)OC23)OC(=O)Nc2ccccc2)OC2OC(C)(C)OC21 (stereo not drawn)            NO
1  COc1ccccc1CNCCCN1C(=O)c2ccc3c4c(ccc(c24)C1=O)C(=O)N(CCCNCc1ccccc1OC)C3=O           YES
2  Cc1ccc(-c2nc([P+](c3ccccc3)(c3ccccc3)c3ccccc3)c(N3CCOCC3)o2)cc1            NO
3  COc1cc2c3c(n(CCCN)c(=O)c2cc1OC)-c1ccc(N)cc1C3=O            NO
4  O=C1NC(=O)N(S(=O)(=O)c2cc(C(=O)Nc3ccc(Cl)cc3)c(Cl)cc2S)S(=O)(=O)N1            NO
5  CN(C)[C@@H]1C(=O)C(C(=O)NCc2nc3[nH]cnc(=S)c3[nH]2)=C(O)[C@@]2(O)C(=O)C3=C(O)c4c(O)cccc4[C@@](C)(O)[C@H]3C[C@@H]12            NO
6  CCCCCCCCCCN=C(N)c1ccc(N2CCN(c3ccc(C(N)=NCCCCCCCCCC)cc3)CC2)cc1            NO
7  COc1ccc(Cn2c(Br)c3c(c2-c2cc(OC)c(OC)c(OC)c2)CCc2sc(N)nc2-3)cc1            NO

* * *

tested on: ACHN renal; assay: NCI tumour cell line growth inhibition, 48 h
QUANTITY_KIND: TGI

>>> df
                                   compound  endpoint_value
0  COC(=O)C(=O)C(C(=O)C(=O)Nc1cccc(OC)c1)c1nc2ccc(Cl)cc2[nH]c1=O (configuration not stated)        > 100 µM
1  O=[N+]([O-])c1ccc(/C=C(/c2ccc([N+](=O)[O-])o2)S(=O)(=O)c2ccccc2)cc1        > 100 µM
2      CC(C)(CCCCC(C)(C)NC1=NCCO1)NC1=NCCO1         > 10 µM
3  O=S(=O)(Nc1ccccc1)c1ccc(C2CC3(Cl)C(Cl)=C(Cl)C2(Cl)C3(Cl)Cl)cc1 (configuration not stated)         10.5 µM
4  O=c1c2cc(Br)ccc2nc(CNc2ccccc2)n1-c1ccccc1       > 49.9 µM
5  Clc1ccc(C(OCn2ccnc2)c2nc3ccccc3[nH]2)c(Cl)c1 (configuration not stated)        > 100 µM
6  Cc1ccccc1NC(=O)C1C(=O)N(c2ccccc2C)C(=O)/C1=N\NC(N)=O (configuration not stated)        > 100 µM

* * *

test system: SF-268 CNS; assay: NCI tumour cell line growth inhibition, 48 h; in the data active = GI50 below about 0.43 µM; inactive = the rest
Possible outcomes: label 1 = active, label 0 = inactive

                                   molecule  answer_label
0  COc1ccc(-c2c(Nc3ccccn3)nc3c(C4=CCCCC4)c(-c4ccccc4)[nH]n3c2=O)cc1       label 0
1    COc1cc(NC(=O)COc2ccccc2)c(C(N)=O)cc1OC       label 0
2  COc1ccc(Cn2c(Br)c3c(c2-c2cc(OC)c(OC)c(OC)c2)CCc2sc(N)nc2-3)cc1       label 0
3  COC(=O)C(C)NP(=O)(OCc1cccc(Cn2cnc3c(N)ncnc32)c1)Oc1ccccc1 (centres undefined)       label 0
4  COc1cc(/C=C/c2cc(/C=C/c3ccc(O)c(OC)c3)n(C(=O)Nc3ccc(C)cc3)n2)ccc1O       label 0
5  O=C1NC(=O)N(S(=O)(=O)c2cc(C(=O)Nc3ccc(Cl)cc3)c(Cl)cc2S)S(=O)(=O)N1       label 0
6  O=C(O)c1cn(C2CC2)c2cc(N3CCN(C(=O)N(c4ccccc4)c4nc(-c5ccccc5)cs4)CC3)c(F)cc2c1=O       label 1
7  N#CC1=C(N)Oc2c(ccc3ccccc23)C1c1cc2ccccc2n2nnnc12 (centres undefined)       label 0
8  Nc1cc(C(F)(F)F)c(-c2nc(N3CCOCC3)nc(N3CCOCC3)n2)cn1       label 0

Measured values drawn from PubChem BioAssay (NCI) for this set.
